protocol-details: Pharmacokinetics in mice, IP
Type: in vivo
study-conditions: mouse, blood, 5 mg/kg, AUC0 - >t, IP 5.0 mg/kg
endpoint-label: AUC

Reported AUC for `Cc1ccc2c(c1)c1c(n2CCc2ccccc2)CCN(C)C1` was 184 ng·h/mL

###

protocol-details: Brain/plasma/CSF distribution in Sprague Dawley rats
Format: in vivo
study-conditions: Sprague Dawley, rat, brain, iv, 2 mg/kg
endpoint-label: AUC(0-inf) (ng·h/mL)
Write the number in ng·h/mL without appending the unit.

Reported AUC(0-inf) for Cc1ccc2c(c1)c1c(n2CCc2ccccc2)CCN(C)C1 [AVN-101] was 8960

###

protocol-details: Phase I pharmacokinetics, single PO dose
Type: in vivo, human
study-conditions: human, blood, po, 20 mg
endpoint-label: AUC (ng·h/mL)
Write the number in ng·h/mL without appending the unit.

Reported AUC for Cc1ccc2c(c1)c1c(n2CCc2ccccc2)CCN(C)C1 [AVN-101] was 0.843

Data origin: paper PMC4969713
